- protocolNotes: Pharmacokinetic study, single 30 mg/kg IP dose, plasma, liver and bone
- Assay type: in vivo, mouse
- conditionSummary: female, C57BL/6J, mouse, plasma, ip, 30 mg/kg, IP, Time 2 h; individual values (1)-(3); read-out: Plasma concentration
measuredParameter: concentration at 2 h (ng/mL)
Record the value in ng/mL, omitting the unit from your answer.

INPUT: Quick check: concentration at 2 h of O=C1Nc2ccc(-c3cc(C(F)(F)F)cc(C(F)(F)F)c3)cc2C(=O)N2CCN(C(=O)COc3ccc(OC(F)(F)F)cc3I)C[C@@H]12 [compound 6641] ?
OUTPUT: 1160

---

- protocolNotes: Pharmacokinetic study, 3 mg/kg IV, 10 mg/kg PO and 10 mg/kg PO QD*3, plasma, liver and bone
- Format: in vivo, mouse
- conditionSummary: female, C57BL/6 J, mouse, liver, po, 10 mg/kg, liver, PO, 48 h, individual animals; read-out: Liver 6641 PO concentration
measuredParameter: concentration at 48 h

INPUT: Quick check: concentration at 48 h of O=C1Nc2ccc(-c3cc(C(F)(F)F)cc(C(F)(F)F)c3)cc2C(=O)N2CCN(C(=O)COc3ccc(OC(F)(F)F)cc3I)C[C@@H]12 ?
OUTPUT: 2.88 ng/g
